- testedTarget: EEEV virus-like particles (strain PE6) (eastern equine encephalitis virus, strain PE6)
- experimentalProtocol: BLI
# pKd values compiled below
pKd here is simply -log10 of the concentration when that concentration is written in mol/L.

VLDLRLBD-Fc fusion protein (from UniProt P98155-1 31-355) = 8.68

Consider the additional substance presented here.
Please report pKd for the following substance: VLDLRLA1-Fc fusion protein (from UniProt P98155-1 31-69) 4.81

Hello, the source for this data is paper PMC11297306, in case you need it.
